- Tested on: Plasmodium berghei
- test method notes: Luciferase/luciferin-expressing antifolate-resistant parasites were used to infect a culture of HepG2 cells that were pre-incubated with compounds. Infected hepatocytes emit light due to the luciferase reaction. Assay results are presented as the percent inhibition of light emission compared to control. […]
- Assay type: functional
- condition parameters: sporozoite, read-out: LUCIFERASE INFECTION ASSAY - IC90
readout name: IC90

[[record]]
chemical_string = "Cc1ccc2nc(-c3ccc(NC(=O)COC(=O)c4oc5ccccc5c4COC(C)C)cc3)sc2c1"
result = "> 10 µM"

[[record]]
chemical_string = "CN(C)S(=O)(=O)c1cccc(C(=O)Nc2cnc3ccccc3c2)c1"
result = "> 10 µM"


// below: IC90 requested for another molecule
Problem: Which value of IC90 has been reported for Cc1ccc(NC(=O)NC(=O)CSc2nccn2Cc2ccccc2)c(C)c1 in the records?
Result: > 10 µM

----------
- Test system: Plasmodium berghei
- test method notes: Luciferase/luciferin-expressing antifolate-resistant parasites were used to infect a culture of HepG2 cells that were pre-incubated with compounds. Infected hepatocytes emit light due to the luciferase reaction. Assay results are presented as the percent inhibition of light emission compared to control. […]
- Type: functional
- condition parameters: sporozoite, read-out: LUCIFERASE INFECTION ASSAY - IC90
readout name: IC90

Consider the reported IC90 for these molecules:
[[record]]
chemical_string = "O/N=C/c1ncc(C(F)(F)F)cc1Sc1ccc(Cl)cc1"
result = "> 9.92 µM"

[[record]]
chemical_string = "CC(C)c1ccc(S(=O)(=O)c2ccc(NNC(=O)c3ccccc3OCc3ccc(Cl)cc3)cc2)cc1"
result = "> 10 µM"


Problem: IC90 for CN(C)c1c(F)cc(C(=O)Nc2cc(C(F)(F)F)cc(C(F)(F)F)c2)cc1F ?
Result: > 8 µM

Problem: Consider the molecule shown here: CN(c1ccccc1)c1nccc2nc(-c3ccncc3)[nH]c12 What is its recorded IC90?
Result: > 10 µM

Problem: Using the record for Cc1ccc(C2=NNC(=NC3CC3)SC2)cc1 , report its IC90.
Result: > 10 µM

----------
- Tested on: Plasmodium berghei
- test method notes: Luciferase/luciferin-expressing antifolate-resistant parasites were used to infect a culture of HepG2 cells that were pre-incubated with compounds. Infected hepatocytes emit light due to the luciferase reaction. Assay results are presented as the percent inhibition of light emission compared to control. […]
- Type: functional
- condition parameters: sporozoite, read-out: LUCIFERASE INFECTION ASSAY - IC90
readout name: IC90

The cases that follow already have their IC90 on record.
[[record]]
chemical_string = "Cc1c(Cl)cccc1-n1c(SCC(=O)N(CCC#N)c2ccccc2)nc2ccccc2c1=O"
target = "Plasmodium berghei"
readout_name = "IC90"
result = "> 10 µM"

[[record]]
chemical_string = "N#CC1=C2SC=C(c3ccc(Br)cc3)N2CCCC1=O"
target = "Plasmodium berghei"
readout_name = "IC90"
result = "> 10 µM"

[[record]]
chemical_string = "O=c1c2c(-c3ccccc3)csc2nc2n1CC/C2=C\\c1cccc(C(F)(F)F)c1"
target = "Plasmodium berghei"
readout_name = "IC90"
result = "> 10 µM"

[[record]]
chemical_string = "Cc1cc(=O)oc2cc(Oc3nc(CN4CCOCC4)nc4sc5c(c34)CCCC5)c(Cl)cc12"
target = "Plasmodium berghei"
readout_name = "IC90"
result = "> 10 µM"

[[record]]
chemical_string = "N#CCS(=O)(=O)c1ccc(OC(F)(F)F)cc1"
target = "Plasmodium berghei"
readout_name = "IC90"
result = "> 12.4 µM"


Problem: GET /values?readout=IC90&item= Cc1ccc(C(=O)Nc2ccnn2CC(C)C)cn1
Result: > 10 µM

----------
The following molecules are listed with their measured pIC50 values.
- Test system: Plasmodium berghei
- test method notes: Luciferase/luciferin-expressing antifolate-resistant parasites were used to infect a culture of HepG2 cells that were pre-incubated with compounds. Infected hepatocytes emit light due to the luciferase reaction. Assay results are presented as the percent inhibition of light emission compared to control. […]
- Type: functional
- condition parameters: sporozoite, read-out: LUCIFERASE INFECTION ASSAY - IC50
pIC50: −log10 of the molar value.

[[record]]
molecule = "CC(C)CCN(C(=O)CN1c2ccccc2CC1C)c1c(N)n(Cc2ccccc2)c(=O)[nH]c1=O (stereo not drawn)"
readout_name = "pIC50"
result = "< 5.00"


Problem: // returns reported pIC50 for input CC(Sc1nnc(-c2ccc(C(C)(C)C)cc2)n1Cc1ccco1)C(=O)Nc1ccc(Cl)cn1 (stereo not drawn)
Result: < 5.00

Problem: Query (molecule): N#Cc1cccc(NC(=O)CNc2cc(C(F)(F)F)ccc2N2CCCC2)c1 ; field requested: pIC50
Result: < 5.00

----------
- Tested on: Plasmodium berghei
- test method notes: Luciferase/luciferin-expressing antifolate-resistant parasites were used to infect a culture of HepG2 cells that were pre-incubated with compounds. Infected hepatocytes emit light due to the luciferase reaction. Assay results are presented as the percent inhibition of light emission compared to control. […]
- Assay type: functional
- condition parameters: sporozoite, read-out: LUCIFERASE INFECTION ASSAY - IC90
readout name: IC90

Some compounds with known IC90 results, for comparison:
[[record]]
compound = "COc1ccc(-c2cc(C3(CNCc4ccc(N(C)C)cc4)CC3)ccn2)cn1"
target = "Plasmodium berghei"
result = "> 10 µM"

[[record]]
compound = "OCc1ccc(-c2cnc3ccc(-c4ccc(F)cc4)nn23)cc1"
target = "Plasmodium berghei"
result = "5.21 µM"

[[record]]
compound = "Cc1cc(C(=O)CSC2=NCCS2)c(C)n1-c1ccc(F)cc1"
target = "Plasmodium berghei"
result = "> 10 µM"

[[record]]
compound = "Cc1cc(O)cc2c1C(=O)/C(=C/c1ccc(F)cc1)O2"
target = "Plasmodium berghei"
result = "> 12.2 µM"

[[record]]
compound = "FC(F)(F)c1cccnc1N1CCN(c2ccc(NC(=S)NCc3ccccc3)cn2)CC1"
target = "Plasmodium berghei"
result = "> 6.98 µM"


Problem: # get_value(readout='IC90', item= CCCNC(=O)C(C)NC(=O)Nc1c(C)cccc1CC (centres undefined) )
Result: > 10 µM

Problem: Would you mind telling me what IC90 value was observed for CCCc1cc(=O)n(-c2ccc(Cl)cc2)[nH]1 ?
Result: 5.8 µM

Problem: What does the data say about its IC90? Entry: Fc1ccc(Oc2ccc(CNc3ncnc4nc[nH]c34)cn2)cc1
Result: > 10 µM

Problem: Please give the measured IC90 for this compound: O=C(N/N=C/c1c(-c2ccccc2)n(-c2ccccc2)c2ccccc12)C1COc2ccccc2O1 (centres undefined)
Result: > 10 µM

Problem: Which IC90 reading was recorded for the compound COc1cc(-c2cnc3c(Nc4cccc(OC(F)(F)C(F)F)c4)nccn23)cc(OC)c1OC ?
Result: 5.38 µM

Problem: Bench note: what IC90 did Cc1csc(C(C#N)C(=O)COC(=O)c2ccccc2SCC(=O)N(C)C)n1 (centres undefined) show?
Result: > 10 µM

Problem: Give the measured IC90 of O=C(CCCc1ccc(F)cc1)c1ccc2c(c1)OCCO2 .
Result: 0.926 µM

Problem: Bench note: what IC90 did COc1ccc(C(=O)C(/C=N/N)=N/Nc2cc(C)cc(C)c2)cc1 show?
Result: 5.98 µM

----------
- Tested on: Plasmodium berghei
- test method notes: Luciferase/luciferin-expressing antifolate-resistant parasites were used to infect a culture of HepG2 cells that were pre-incubated with compounds. Infected hepatocytes emit light due to the luciferase reaction. Assay results are presented as the percent inhibition of light emission compared to control. […]
- Assay type: functional
- condition parameters: sporozoite, read-out: LUCIFERASE INFECTION ASSAY - IC90
readout name: IC90

Use the examples below as a reference point.
[[record]]
compound = "CN(C)C(CNc1ncnc2sc(-c3ccccc3)cc12)c1ccco1 (stereo unspecified)"
result = "> 10 µM"

[[record]]
compound = "O=S(=O)(Nc1cccc2cccnc12)c1cc(Cl)c(Cl)cc1Cl"
result = "> 8.51 µM"


Problem: Form field: reported IC90 of CC(Sc1ncnc2sc(-c3ccccc3)cc12)C(=O)N1CCNC1=O (stereo unspecified)
Result: > 10 µM

Problem: Returns the measured IC90 for the input compound. Input: Cc1csc2ncnc(N3CCN(C(=O)Nc4ccc(Cl)c(Cl)c4)CC3)c12
Result: > 7.81 µM

Problem: Look up IC90 for this compound: NC(=O)NC(CC(=O)NCc1cccs1)c1cccc(Oc2ccccc2)c1 (stereo unspecified)
Result: > 10 µM

Problem: Which IC90 value belongs to COc1ccc(C(CNC(=O)c2cc3cc(Br)ccc3[nH]2)N2CCCC2)cc1 (stereo unspecified) ?
Result: > 10 µM

----------
Below, each of the compounds is paired with its reported IC90 value.
- Test system: Plasmodium berghei
- test method notes: Luciferase/luciferin-expressing antifolate-resistant parasites were used to infect a culture of HepG2 cells that were pre-incubated with compounds. Infected hepatocytes emit light due to the luciferase reaction. Assay results are presented as the percent inhibition of light emission compared to control. […]
- Format: functional
- condition parameters: sporozoite, read-out: LUCIFERASE INFECTION ASSAY - IC90

Example entries and their recorded answers appear below.
[[record]]
compound = "Cc1oc(-c2ccccc2)nc1C(=O)N(C)CC(=O)Nc1ccc(N2CCOCC2)cc1"
result = "> 10 µM"

[[record]]
compound = "CCCn1nc(C(=O)OCC(=O)c2cc(C)n(CC(F)(F)F)c2C)c2ccccc2c1=O"
result = "> 10 µM"

[[record]]
compound = "COc1cc(OC)cc(C(NS(=O)(=O)c2cc(C(F)(F)F)ccc2Cl)c2nccn2C)c1 (stereo unspecified)"
result = "> 10 µM"

[[record]]
compound = "CCCn1c(NC(=O)c2oc3ccccc3c2COCC)nc2ccccc21"
result = "> 10 µM"

[[record]]
compound = "CN(C)C(=O)c1ccc(-c2cnc3cnc(-c4ccc(F)c(Cl)c4)cn23)cc1"
result = "> 8.36 µM"

[[record]]
compound = "O=C(Nc1ccccc1)N1CCC(C(=O)N2CCN(C(=O)c3ccccc3Cl)CC2)CC1"
result = "> 10 µM"

[[record]]
compound = "COc1ccc(O)c(C(=O)c2c[nH]c(C(=O)N3CCCC3)c2)c1"
result = "> 10 µM"

[[record]]
compound = "COC(=O)c1cc(Br)ccc1NC(=O)CCNC(=O)c1cccc(C)c1"
result = "> 10 µM"


Problem: # IC90 lookup, item Cc1cc(-n2c(-c3cccnc3Oc3ccccc3)n[nH]c2=S)ccc1Br
Result: > 7.51 µM

Problem: Which IC90 value belongs to Cc1ccc(-n2nc(C)c(NC(=O)Cn3c(NCc4ccccc4)nc4ccccc43)c2C)cc1 ?
Result: > 10 µM

Problem: Please report the recorded IC90 for O=C1c2ccccc2S(=O)(=O)N1c1ccccc1F .
Result: > 10 µM
